Ref: ChEMBL document CHEMBL1153486

- test_description: Half life in CD1 mouse at 1.6 mg/kg, iv
- Format: ADME, organism-based
- Set-up: dose 1.6 mg/kg, route intravenous
- measurement_conditions: in vivo

# smiles_string, unit_descriptor, half-life
data = [
    ("O=CNCC(=O)N1C[C@H](NC(=O)c2ccccc2)C[C@H]1C(=O)O", "min", 24),
]

---

- test_description: Half life in CD1 mouse at 5 mg/kg, po
- measurement_conditions: in vivo

# smiles_string, half-life
measured = [
    ("O=CNCC(=O)N1C[C@H](NC(=O)c2ccccc2)C[C@H]1C(=O)O", "1.4 h"),
]

---

- test_description: Half life in CD1 mouse at 0.77 mg/kg, iv
- Type: ADME, organism-based
- Design: dose 0.77 mg/kg, route intravenous
- measurement_conditions: in vivo
quantity_name: half-life

# compound, assay_value
data = [
    ("NCC(=O)N1C[C@H](NC(=O)c2ccccc2)C[C@H]1C(=O)O [DANEGAPTIDE]", "1.6 h"),
]
